Would you mind telling me the reported pEC50 of each entry?
- Tested on: CEM cells HIV-1 protection, formazan growth assay
- assay.name: NCI AIDS Antiviral Assay
pEC50: −log10 of the molar value.

Below, each entry is followed by its recorded pEC50 result.
CSC(=Nc1ccccc1Cl)NC(=O)c1ccc(Br)cc1 = < 4.99
CNc1ccc(Cl)cc1S(=O)(=O)c1ccccc1Br = < 3.70

Query molecule follows.
// Brc1ccc(N2N=NC3CNCC32)cc1 (stereo not drawn) : pEC50 value = < 4.57

* * *

- Test system: CEM cells HIV-1 protection, formazan growth assay
- assay.name: NCI AIDS Antiviral Assay
- measurement.conditions: measured here: growth of uninfected CEM cells
reported.property: IC50

Below, each entry is followed by its recorded IC50 result.
OC(c1ccccn1)c1c(Cl)cccc1Cl (stereo unspecified) = > 200 µM
COC(=O)C(CC(C)C)NC(=O)NC12CC3CC(CC(F)(C3)C1)C2 (stereo unspecified) = > 75.9 µM
CC(C)C(Sc1nc(-c2ccccc2)c(-c2ccccc2)[nH]1)C(=O)N/N=C/c1ccc(Cl)cc1 (stereo unspecified) = > 74.1 µM
NC1=NN(c2ccccc2)C(=O)C1C(=O)C(=O)Nc1nccs1 (stereo unspecified) = > 79.4 µM
N#CC1C2C=CC(CCC2)C1C#N (stereo unspecified) = > 200 µM

Query compound follows.
// `Cc1c2c(n3c(nc4ccccc43)c1C#N)N(c1ccc(F)cc1)CC2` : IC50 value = > 200 µM

* * *

- Test system: CEM cells HIV-1 protection, formazan growth assay
- assay.name: NCI AIDS Antiviral Assay
- measurement.conditions: measured here: growth of uninfected CEM cells
Would you mind telling me the reported IC50 of each entry?

CCOc1cnc([C@H]2CCC3[C@@H]4CC=C5C[C@@H](OC(C)=O)CC[C@]5(C)C4CC[C@@]32C)s1 (stereo partly specified) = > 21.4 µM
O=C1C[C@@H]2[C@@H](C=CC23CC3)N1O = > 1510 µM

Give me IC50 for each of these compounds, listed below.
1. CCCN(CCCCC(NC(C)=O)C(=O)NCc1ccccc1)C(=O)NC (stereo unspecified)
2. CC(C)(NO)/C(=N\O)c1ccccc1

Ans.
1: > 661 µM; 2: > 200 µM

Give me IC50 for each of these compounds, listed below.
1. Nc1nccc(NCC2(CO)CC(OCc3ccccc3)C2)n1 (stereo unspecified)
2. CN(C)CCN1C(=O)C2C3CCC(C)(O3)C2C1=O (stereo unspecified)

Ans.
> 200 µM
> 200 µM
